# Subject Of Test: Homeobox protein Hox-A13 (Mus musculus)
# Assay Protocol: disruptors of Hoxa13 oligonucleotide interaction – biochemical, fluorescence polarization, labeled oligonucleotide, primary screen (AID 1185)
# Setup Conditions: Hoxa13:DNA binding, 15 min, higher = more signal, called active from +8 up or from −8 down
Readout Name: z-score

INSERT INTO measurements (compound, reading) VALUES
  ('CCCNC(=O)[C@@]1(C)c2ccccc2C(=O)N(Cc2cc(F)cc(C(F)(F)F)c2)[C@H]1c1ccc(CO)cc1', -3.51),
  ('Cc1ccc(S[C@]2(C(=O)NCCCN(C)C)CC(=O)N(C(C)C)[C@@H]2c2ccc(CO)cc2I)cc1', -2.81),
  ('COCCOC(=O)N1C(=O)[C@@]2(c3cc(C#CCC(C(=O)OC)C(=O)OC)ccc31)[C@H](c1ccccc1OCCO)N1[C@H](c3ccccc3)[C@H](c3ccccc3)OC(=O)[C@H]1[C@@H]2C(=O)Nc1nc2ccccc2s1', 3.51),
  ('CCOC(=O)C1=CC[C@@H](c2ccccc2)N(S(=O)(=O)c2ccc(C)cc2)[C@H]1c1ccc(C#N)cc1', 0.426),
  ('O=c1cccc(-c2ccccc2)o1', -1.85),
  ('O=C1O[C@@H](c2ccccc2)[C@@H](c2ccccc2)N2[C@@H](c3ccc(O)cc3)[C@]3(C(=O)Nc4ccc(C#CCCO)cc43)[C@@H](C(=O)O)[C@H]12', -4.56),
  ('O=C(CS)NCCCCCNC(=O)[C@H]1C[C@H]2C(=O)N[C@@H](Cc3ccccc3)C(=O)N2[C@H]1c1cccc(OCCO)c1', -2.76),
  ('O=[N+]([O-])c1ccc(C[n+]2ccc(CCCO)cc2)o1', -2.88),
  ('CCOC1=C2C(c3ccc(C)cc3)N(S(=O)(=O)c3ccc(C)cc3)CC2n2c(=O)n(-c3ccccc3)c(=O)n2C1 (centres undefined)', -0.865),
  ('COc1ccc(C(=O)Nc2cccc(CN3C(=O)[C@@]4(O[C@@H](CCn5cc([C@H](O)c6ccccc6)nn5)[C@H]([Si](C)(C)c5ccc(OC)cc5)[C@H]4C)c4ccccc43)c2)cc1', 0.472),
  ('O=C1OCC=C[C@H]2OC34C=CCN(c5ccc(Cl)cc5)C(=O)[C@H]3N(CCCO)C(=O)[C@@H]4[C@@H]12 (some centres undefined)', -2.31),
  ('Cc1ccc(S(=O)(=O)N2CC(C(=O)O)=CCC2c2ccccc2)cc1 (centres undefined)', -2.63),
  ('COCCOC(=O)N1C(=O)[C@@]2(c3cc(C#CCC(C(=O)OC)C(=O)OC)ccc31)[C@H](c1ccc(OCCO)cc1)N1[C@H](c3ccccc3)[C@H](c3ccccc3)OC(=O)[C@H]1[C@@H]2C(=O)NC[C@H](O)c1ccccc1', 0.738),
  ('NC(=O)[C@@]1(CCS(=O)(=O)c2ccccc2)N=C(c2ccc(OCCCO)cc2)O[C@H]1c1ccccc1', -6.86);

* * *

# Subject Of Test: Luciferin 4-monooxygenase (Photinus pyralis)
# Assay Protocol: inhibition of purified Photinus pyralis luciferase – biochemical, luminescence, purified enzyme, 2006 set, primary screen (AID 1141);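 further: cell-free assay with purified firefly luciferase at 100 ng per well in PBS; test concentration not given here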
# Setup Conditions: purified firefly luciferase, SteadyGlo luminescence, 30 min; higher = more signal, called active from +8 up or from −8 down
Calls of active or inactive are those of the source.
Reported z-score is given for each of the following compounds.
Readout Name: z-score

INSERT INTO results (compound, readout_name, reading) VALUES
  ('CN1C(=O)C2C(C1=O)C1C=C(c3ccc(CO)cc3)C2C(C2CC2)N1Cc1cc2c(cc1Br)OCO2 (stereo not drawn)', 'z-score', '-1.9 (inactive)'),
  ('COc1cc(CO)cc(I)c1O[C@H]1C=C(C(=O)NCCO)C[C@@H](N(CCc2cccc(F)c2)C(=O)CCC2CCCC2)[C@@H]1O', 'z-score', '1.38 (inactive)'),
  ('C=CCNC(=O)[C@@H]1[C@H]2C(=O)O[C@H](c3ccccc3)[C@H](c3ccccc3)N2[C@H](c2ccccc2OCCO)[C@@]12C(=O)N(C(=O)OCCOC)c1ccc(C#CCC(C(=O)OC)C(=O)OC)cc12', 'z-score', '0.112 (inactive)');
